Values from ChEMBL document CHEMBL2331234

- Tested on: Mus musculus
- protocol.description: Antinociceptive activity in po dosed Swiss albino mouse assessed as reduction in number of acetic acid-induced writhing counted 5 mins after acetic acid challenge counted for 10 mins
- Assay type: functional
- protocol.conditions: read-out: MED
outcome.measure: minimal effective dose (mg/kg)
Your answer should be a plain number; it is taken to be in mg/kg.

Cc1c(CCOCCCO[N+](=O)[O-])cc(-c2ccc(S(C)(=O)=O)cc2)n1-c1ccccc1 :: 20
Cc1c(CCOCCO)cc(-c2ccc(S(C)(=O)=O)cc2)n1-c1ccc(F)cc1 :: 40

So, Cc1c(CCOCCO)cc(-c2ccc(S(C)(=O)=O)cc2)n1-c1ccc(F)c(F)c1 ? Its minimal effective dose was 20

So, Cc1c(CCOCCO[N+](=O)[O-])cc(-c2ccc(S(C)(=O)=O)cc2)n1-c1ccc(F)c(F)c1 ? Its minimal effective dose was 20

So, Cc1c(CCOCCCO)cc(-c2ccc(S(C)(=O)=O)cc2)n1-c1ccccc1 ? Its minimal effective dose was 20
